# PROTOCOL: Plasma stability
# Type: in vitro ADME
MEASURED_PARAMETER: Plasma Stability, % (45 minutes) (%)
Write the answer as a number in %, unit excluded.

// worked examples, Plasma Stability, % (45 minutes) included
* CC(C)C(C(=O)O)N1C(=O)/C(=C\c2ccc(-c3ccccc3)cc2)SC1=S (stereo not shown) | 59
* CC(C)C(C(=O)O)N1C(=O)/C(=C\c2ccc(Br)cc2)SC1=S (stereo not shown) | 56
* CC(=C\c1ccccc1)/C=C1/SC(=S)N(C(C(=O)O)C(C)C)C1=O (stereo not shown) | 51

Okay, now this compound:
Value lookup for Plasma Stability, % (45 minutes); key = `O=C(O)CN1C(=O)S/C(=C\c2ccc(-c3ccccc3)cc2)C1=O`
58

* * *

# System: A549L
# PROTOCOL: Cell viability IC50, A549L
# Assay type: cell-based
# CONDITIONS: mean ± standard deviation of three independent experiments
Parameter: pIC50. Scope: all listed entries.
Keep it numeric: pIC50 is minus log10 of the concentration in mol/L.

* CC(C)C(C(=O)O)N1C(=O)/C(=C\c2ccc(Br)cc2)SC1=S (centres unmarked) [Compound 1] | 4.91

Okay, now this compound:
Value lookup for pIC50; key = O=C(O)CN1C(=O)S/C(=C\c2ccc(-c3ccccc3)cc2)C1=O [Compound A]
6.10
